# SYSTEM NAME: T1, Human ALPP (leucine zipper) (human)
# T1 construct: Whole entry: ALPP fused with a cysteine stabilised leucine zipper and His tag; also called hALPP
# T1 chain: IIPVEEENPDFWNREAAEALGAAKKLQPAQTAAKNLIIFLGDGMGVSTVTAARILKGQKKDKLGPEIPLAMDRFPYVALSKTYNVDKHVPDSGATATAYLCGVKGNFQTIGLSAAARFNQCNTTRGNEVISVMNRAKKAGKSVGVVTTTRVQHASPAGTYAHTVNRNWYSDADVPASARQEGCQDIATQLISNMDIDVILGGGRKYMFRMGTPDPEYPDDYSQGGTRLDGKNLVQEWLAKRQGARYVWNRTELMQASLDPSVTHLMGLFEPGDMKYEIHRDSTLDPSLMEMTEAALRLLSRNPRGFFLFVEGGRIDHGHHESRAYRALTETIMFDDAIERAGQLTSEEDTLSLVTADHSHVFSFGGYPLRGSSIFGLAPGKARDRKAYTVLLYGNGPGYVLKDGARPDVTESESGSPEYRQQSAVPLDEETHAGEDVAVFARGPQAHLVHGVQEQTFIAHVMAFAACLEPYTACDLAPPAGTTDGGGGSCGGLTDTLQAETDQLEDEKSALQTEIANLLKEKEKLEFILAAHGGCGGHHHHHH
# TEST: BLI, antigen immobilised
METRIC: kon (M⁻¹ s⁻¹)

BINDER: D11 (VHH, not shown: small tags and cut ends) VHH: QVQLVESGGGSVQAGGSLRLSCAASGPSLSNYAMGWFRQAPGKEREFVAGISWGGGRTSYTDSVKGRFTISRDNAKNTVYLQMNNLKPEDTGVYYCAGRYGRGRNVEYEYDYWGQGTMVTVSS
REPORTED VALUE: 97700

BINDER: D08 (VHH, not shown: small tags and cut ends) VHH: QVHLVESGGGSVQAGGSLRLSCAASGPSLSNYAMGWFRQAPGKEREFVAGISWGGGRTSYTDSVKGRFTISRDNAKNTVYLQMNNLKPEDTGVYYCAGRYGRGRNVEYEYDYWGQGTKVTVSS
REPORTED VALUE: 175000

BINDER: B11 (VHH, not shown: small tags and cut ends) VHH: QVHLVESGGGSVQAGGSLRLSCAASGPSLSNYAMGWFRQAPGKEREFVAGISWGGGRTSYTDSVKGRFTISRDNAKNTVYLQMNNLKPEDTGVYYCAGRYGRGRNVEYEYDYWGQGTQVTVSS
REPORTED VALUE: 213000

BINDER: D10 His (VHH, not shown: small tags and cut ends) VHH: QVQLVESGGGLVQPGGSLRLSCAASGSIFSVNTMGWYRQAPGKQRDLVAVATSGGTIHYADSVKGRFTISRDNAKNTVYLQMNSLKPEDTAVYYCNLVVPYGMIAGDHDYWGQGTKVTVSS
REPORTED VALUE: 67300
